# assayed.system: specific receptor on the membrane of human neutrophils (leukotriene B4) (Homo sapiens, UniProt Q15722)
# Construct: Freshly-prepared buffy coat layers from two individuals were obtained from a local blood donor center; endogenous in cells; host or cells: intact human peripheral blood neutrophils from buffy coats of two donors
# Sequence (Q15722 whole entry): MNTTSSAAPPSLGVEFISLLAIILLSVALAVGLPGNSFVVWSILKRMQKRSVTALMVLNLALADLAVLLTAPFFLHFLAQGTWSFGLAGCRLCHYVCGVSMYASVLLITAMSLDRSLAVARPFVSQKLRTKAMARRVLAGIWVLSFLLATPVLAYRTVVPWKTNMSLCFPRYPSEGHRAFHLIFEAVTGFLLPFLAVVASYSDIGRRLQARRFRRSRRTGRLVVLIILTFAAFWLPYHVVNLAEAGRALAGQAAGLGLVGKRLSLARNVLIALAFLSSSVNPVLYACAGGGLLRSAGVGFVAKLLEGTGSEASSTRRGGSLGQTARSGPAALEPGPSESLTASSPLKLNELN
# measurement.description: Inhibition of Binding of ^3 H-LTB4 to Peripheral Human Neutrophils
# experimental.conditions: drug concentration 10^-6 M; 0.1-0.2 nM ^3 H-LTB4, 10 minutes at 4° C; read-out: LTB4 Binding Inhibition
observation.type: inhibition at 1 µM (%)

[[record]]
molecule = "CCCCCCCCCCOc1ccc(C(=O)c2cccc(C(=O)OCC)c2)cc1Cc1nnn[nH]1"
unit_text = "%"
obs_value = 14

[[record]]
molecule = "CCCCCCOc1ccc(C(O)c2cccc(C(=O)O)c2)cc1CC(=O)O (centres unmarked)"
unit_text = "%"
obs_value = -10

[[record]]
molecule = "CCCCCCCCCCOc1ccc(C(=NO)c2cccc(C(=O)O)c2)cc1CCC(=O)O"
unit_text = "%"
obs_value = 61


[I] CCCCCCCCCCCCOc1ccc(C(=O)c2cccc(C(=O)O)c2)cc1CC(=O)O
[II] CCCCCCCCCCOc1ccc(C(O)c2cccc(C(=O)O)c2)cc1CCC(=O)O (centres unmarked)
Exam item: Which of the two gives a bigger number for inhibition at 1 µM: I or II ? // output: label of the selected item
Marked response: II
(II: 55%, I: 18%)
